Origin of values: patent US8586098B2

- ASSAY_COMMENT: solubility in DMSO at room temperature
- Assay type: physicochemical
- COND: solubility in solvent (DMSO):solubility in water, room temperature
Each entry below carries its reported Sol^y Ratio.

These recorded examples may help you get a feel for the data.
COMPOUND | Sol^y Ratio
CN(Cc1cnc2nc(N)nc(N)c2n1)c1ccc(C(=O)N[C@@H](CCC(=O)O)C(=O)O)cc1 [Methotrexate] | >5 × 10^4
CC[C@@]1(O)C(=O)OCc2c1cc1n(c2=O)Cc2cc3ccccc3nc2-1 | >10^3
CO[C@H]1C[C@@H]2CC[C@@H](C)[C@@](O)(O2)C(=O)C(=O)N2CCCC[C@H]2C(=O)O[C@H]([C@H](C)C[C@@H]2CC[C@@H](O)[C@H](OC)C2)CC(=O)[C@H](C)/C=C(\C)[C@@H](O)[C@@H](OC)C(=O)[C@H](C)C[C@H](C)/C=C/C=C/C=C/1C | >4 × 10^4

Exam item: Value lookup for Sol^y Ratio; key = C[C@@H]1C[C@H]2[C@@H]3CCC4=CC(=O)C=C[C@]4(C)[C@@]3(F)[C@@H](O)C[C@]2(C)[C@@]1(O)C(=O)CO
Marked response: >10^5

###

- ASSAY_COMMENT: solubility in DMSO at room temperature
- Type: physicochemical
- COND: room temperature
MEASURED_METRIC: Sol^y in DMSO (g/L)

Below are worked cases with known answers.
COMPOUND | Sol^y in DMSO / g/L
CC[C@@]1(O)C(=O)OCc2c1cc1n(c2=O)Cc2cc3ccccc3nc2-1 [Camptothecin] | 10
CC(=O)O[C@H]1C(=O)[C@@]2(C)[C@H]([C@H](OC(=O)c3ccccc3)[C@]3(O)C[C@H](OC(=O)[C@H](O)[C@@H](NC(=O)c4ccccc4)c4ccccc4)C(C)=C1C3(C)C)[C@]1(OC(C)=O)CO[C@@H]1C[C@@H]2O [Paclitaxel] | 50
CO[C@H]1C[C@@H]2CC[C@@H](C)[C@@](O)(O2)C(=O)C(=O)N2CCCC[C@H]2C(=O)O[C@H]([C@H](C)C[C@@H]2CC[C@@H](O)[C@H](OC)C2)CC(=O)[C@H](C)/C=C(\C)[C@@H](O)[C@@H](OC)C(=O)[C@H](C)C[C@H](C)/C=C/C=C/C=C/1C [Rapamycin] | 25

(P) CN(Cc1cnc2nc(N)nc(N)c2n1)c1ccc(C(=O)N[C@@H](CCC(=O)O)C(=O)O)cc1 [Methotrexate]
(Q) C[C@@H]1C[C@H]2[C@@H]3CCC4=CC(=O)C=C[C@]4(C)[C@@]3(F)[C@@H](O)C[C@]2(C)[C@@]1(O)C(=O)CO [Dexamethasone]
Exam item: Select the item whose Sol^y in DMSO value is smaller, choosing between P and Q . Respond using the label that marks the chosen record.
Marked response: P

###

- ASSAY_COMMENT: solubility in DMSO at room temperature
- Assay type: physicochemical
- COND: DMSO, organic solvent or mixture; room temp, Example 3
MEASURED_METRIC: solubility

Exam item: For the molecule shown here, C[C@@H]1C[C@H]2[C@@H]3CCC4=CC(=O)C=C[C@]4(C)[C@@]3(F)[C@@H](O)C[C@]2(C)[C@@]1(O)C(=O)CO [Dexamethasone] , give the reported solubility.
Marked response: ~60 mg/mL
